Test system: KHOS-240S
assayRemarks: relative viability vs DMSO control (72 h) (fraction); higher = more viable cells
conditionSet: 0.01372 µM
assayEndpoint: relative viability
One number for each entry.

>  <molecule>
COc1cc(Nc2ncc(F)c(Nc3ccc4c(n3)N(COP(=O)(O)O)C(=O)C(C)(C)O4)n2)cc(OC)c1OC [Fostamatinib]

>  <valueObserved>
1.07

$$$$
>  <molecule>
N#CC1(c2ccc(NC(=O)c3cccnc3NCc3ccncc3)cc2)CCCC1 [Apatinib]

>  <valueObserved>
1.04

$$$$
>  <molecule>
CCc1cnn2c(NCc3ccc[n+]([O-])c3)cc(N3CCCC[C@H]3CCO)nc12 [Dinaciclib]

>  <valueObserved>
0.45

$$$$
>  <molecule>
Cc1cc2c(F)c(Oc3ncnn4cc(OC[C@@H](C)O)c(C)c34)ccc2[nH]1 [Brivanib]

>  <valueObserved>
1.05

$$$$
>  <molecule>
O=C1NC(=O)[C@@H](c2cn3c4c(cccc24)CCC3)[C@@H]1c1c[nH]c2ccccc12 [Tivantinib]

>  <valueObserved>
1.05

$$$$

Provide reported relative viability for each item, in the same order as listed.
1. CC#CC(=O)N1CCC[C@H]1c1nc(-c2ccc(C(=O)Nc3ccccn3)cc2)c2c(N)nccn12 [Acalabrutinib]
2. COC(=O)N[C@@H](C)CNc1nccc(-c2cn(C(C)C)nc2-c2cc(Cl)cc(NS(C)(=O)=O)c2F)n1 [Encorafenib]
3. CCN(CC)CCNC(=O)c1c(C)[nH]c(/C=C2\C(=O)Nc3ccc(F)cc32)c1C [Sunitinib]
4. CNC(=O)c1nnc(NC(=O)C2CC2)cc1Nc1cccc(-c2ncn(C)n2)c1OC
5. COc1cc(OC)c(/C=C/S(=O)(=O)Cc2ccc(OC)c(NCC(=O)O)c2)c(OC)c1 [Rigosertib]
6. N#CCNC(=O)c1ccc(-c2ccnc(Nc3ccc(N4CCOCC4)cc3)n2)cc1 [Momelotinib]

Result block:
[1.06, 0.964, 1.04, 1.07, 1.03, 1.08]

* * *

Would you kindly list relative viability for each of these compounds?
Test system: RD
assayRemarks: relative viability vs DMSO control (72 h) (fraction); higher = more viable cells
conditionSet: 1.111 µM
Numbers only.

Look over these answered cases.
>  <compound>
CO[C@H]1C[C@@H]2CC[C@@H](C)[C@@](O)(O2)C(=O)C(=O)N2CCCC[C@H]2C(=O)O[C@H]([C@H](C)C[C@@H]2CC[C@@H](OCCO)[C@H](OC)C2)CC(=O)[C@H](C)/C=C(\C)[C@@H](O)[C@@H](OC)C(=O)[C@H](C)C[C@H](C)/C=C/C=C/C=C/1C

>  <relative viability>
0.73

$$$$
>  <compound>
N#CC1(c2ccc(NC(=O)c3cccnc3NCc3ccncc3)cc2)CCCC1

>  <relative viability>
1.05

$$$$
>  <compound>
O=C(Nc1ccc(OC(F)(F)Cl)cc1)c1cnc(N2CC[C@@H](O)C2)c(-c2cc[nH]n2)c1

>  <relative viability>
1.04

$$$$
>  <compound>
Cc1cccc(-c2nn3c(c2-c2ccnc4ccc(C(N)=O)cc24)CCC3)n1

>  <relative viability>
1.08

$$$$
>  <compound>
COC(=O)[C@@]1(O)C[C@H]2O[C@]1(C)n1c3ccccc3c3c4c(c5c6ccccc6n2c5c31)C(=O)NC4 [K-252a]

>  <relative viability>
0.507

$$$$
>  <compound>
O=c1sn(-c2cccc3ccccc23)c(=O)n1Cc1ccccc1

>  <relative viability>
1.1

$$$$

Query block: Returns the measured relative viability for the input compound. Input: COc1cc(Nc2ncc(F)c(Nc3ccc4c(n3)N(COP(=O)(O)O)C(=O)C(C)(C)O4)n2)cc(OC)c1OC
Result block: 0.96

* * *

For each of the compounds below, state its relative viability.
Test system: MES-SA
assayRemarks: relative viability vs DMSO control (72 h) (fraction); higher = more viable cells
conditionSet: 0.00457 µM
Answers are plain numbers.

Example entries and their recorded answers appear below.
>  <compound>
CN1CCN(c2ccc(C(=O)Nc3n[nH]c4ccc(Cc5cc(F)cc(F)c5)cc34)c(NC3CCOCC3)c2)CC1

>  <relative viability>
0.925

$$$$
>  <compound>
CC(C)(O)CNc1nc(Nc2ccnc(C(F)(F)F)c2)nc(-c2cccc(C(F)(F)F)n2)n1

>  <relative viability>
0.956

$$$$
>  <compound>
COc1cc(OC)c(/C=C/S(=O)(=O)Cc2ccc(OC)c(NCC(=O)O)c2)c(OC)c1

>  <relative viability>
0.91

$$$$
>  <compound>
C[C@H](Nc1ncnc2nc[nH]c12)c1cc2cccc(Cl)c2c(=O)n1-c1ccccc1

>  <relative viability>
0.944

$$$$
>  <compound>
Cc1cc2cc(Oc3ccnc(Nc4cccc(CS(=O)(=O)NCCN(C)C)c4)n3)ccc2[nH]1

>  <relative viability>
0.906

$$$$
>  <compound>
N#CCNC(=O)c1ccc(-c2ccnc(Nc3ccc(N4CCOCC4)cc3)n2)cc1

>  <relative viability>
0.952

$$$$
>  <compound>
CC(C)NC[C@@H](C(=O)N1CCN(c2ncnc3c2[C@H](C)C[C@H]3O)CC1)c1ccc(Cl)cc1

>  <relative viability>
0.905

$$$$
>  <compound>
COCCNc1cc(NC(=O)N2CCCc3cc(CN4CCN(C)CC4=O)c(C=O)nc32)ncc1C#N

>  <relative viability>
0.885

$$$$
>  <compound>
N#CC1(c2ccc(NC(=O)c3cccnc3NCc3ccncc3)cc2)CCCC1

>  <relative viability>
0.927

$$$$

Lab note: next compound to report on.
Query block: Value wanted: relative viability (MES-SA) of entry O=C1NC(=O)[C@@H](c2cn3c4c(cccc24)CCC3)[C@@H]1c1c[nH]c2ccccc12 [Tivantinib]
Result block: 0.919

* * *

Tested on: HS729
assayRemarks: relative viability vs DMSO control (72 h) (fraction); higher = more viable cells
conditionSet: 0.1235 µM
assayEndpoint: relative viability
Give bare numbers.

>  <compound>
CC(C)(O)CNc1nc(Nc2ccnc(C(F)(F)F)c2)nc(-c2cccc(C(F)(F)F)n2)n1

>  <assayEndpoint>
relative viability

>  <valueObserved>
1.02

$$$$
>  <compound>
O=C1NC(=O)[C@@H](c2cn3c4c(cccc24)CCC3)[C@@H]1c1c[nH]c2ccccc12 [Tivantinib]

>  <assayEndpoint>
relative viability

>  <valueObserved>
0.864

$$$$
>  <compound>
O=c1sn(-c2cccc3ccccc23)c(=O)n1Cc1ccccc1

>  <assayEndpoint>
relative viability

>  <valueObserved>
0.972

$$$$
>  <compound>
CN1CCN(c2ccc(C(=O)Nc3n[nH]c4ccc(Cc5cc(F)cc(F)c5)cc34)c(NC3CCOCC3)c2)CC1

>  <assayEndpoint>
relative viability

>  <valueObserved>
0.925

$$$$
>  <compound>
O=S(=O)(c1cccc2cnccc12)N1CCCNCC1

>  <assayEndpoint>
relative viability

>  <valueObserved>
0.926

$$$$
>  <compound>
N#CCNC(=O)c1ccc(-c2ccnc(Nc3ccc(N4CCOCC4)cc3)n2)cc1

>  <assayEndpoint>
relative viability

>  <valueObserved>
0.995

$$$$
>  <compound>
COc1cc(OC)c(/C=C/S(=O)(=O)Cc2ccc(OC)c(NCC(=O)O)c2)c(OC)c1

>  <assayEndpoint>
relative viability

>  <valueObserved>
0.928

$$$$

Query block: // returns reported relative viability for input COC(=O)N[C@@H](C)CNc1nccc(-c2cn(C(C)C)nc2-c2cc(Cl)cc(NS(C)(=O)=O)c2F)n1
Result block: 1.04

* * *

Test system: KHOS-240S
assayRemarks: relative viability vs DMSO control (72 h) (fraction); higher = more viable cells
conditionSet: 0.00017 µM
For each record, write down the corresponding relative viability.
Give bare numbers.

// solved cases for relative viability follow
>  <molecule>
CC1(C)CC=C(c2nc(C3CC(C)(C)OC(C)(C)C3)ccc2NC(=O)c2nc(C#N)c[nH]2)CC1 [Edicotinib]

>  <relative viability>
1.03

$$$$
>  <molecule>
O=C1NC(=O)[C@@H](c2cn3c4c(cccc24)CCC3)[C@@H]1c1c[nH]c2ccccc12 [Tivantinib]

>  <relative viability>
1.03

$$$$
>  <molecule>
O=C(Nc1nc2cccc(-c3ccc(CN4CCS(=O)(=O)CC4)cc3)n2n1)C1CC1 [Filgotinib]

>  <relative viability>
1.04

$$$$
>  <molecule>
COC(=O)N[C@@H](C)CNc1nccc(-c2cn(C(C)C)nc2-c2cc(Cl)cc(NS(C)(=O)=O)c2F)n1 [Encorafenib]

>  <relative viability>
0.998

$$$$
>  <molecule>
N#CCNC(=O)c1ccc(-c2ccnc(Nc3ccc(N4CCOCC4)cc3)n2)cc1 [Momelotinib]

>  <relative viability>
1.05

$$$$
>  <molecule>
CCc1cnn2c(NCc3ccc[n+]([O-])c3)cc(N3CCCC[C@H]3CCO)nc12 [Dinaciclib]

>  <relative viability>
0.954

$$$$
>  <molecule>
COc1cc(OC)c(/C=C/S(=O)(=O)Cc2ccc(OC)c(NCC(=O)O)c2)c(OC)c1 [Rigosertib]

>  <relative viability>
1.06

$$$$
>  <molecule>
COc1cc(CCc2cc(NC(=O)c3ccc(N4CC(C)NC(C)C4)cc3)n[nH]2)cc(OC)c1 (configuration not stated) [AZD-4547]

>  <relative viability>
1.04

$$$$
>  <molecule>
Cc1cc2cc(Oc3ccnc(Nc4cccc(CS(=O)(=O)NCCN(C)C)c4)n3)ccc2[nH]1 [Sulfatinib]

>  <relative viability>
1.02

$$$$
>  <molecule>
CC1(COc2ccc3c(c2)ncn3-c2ccc3cccc(N4CCC(N)CC4)c3n2)COC1 [Crenolanib]

>  <relative viability>
0.97

$$$$

State recorded relative viability for all listed molecules.
1. CC(C)Oc1ccc(-c2nn([C@@H](C)c3oc4ccc(F)cc4c(=O)c3-c3cccc(F)c3)c3ncnc(N)c23)cc1F [Umbralisib]
2. C[C@H](Nc1ncnc2nc[nH]c12)c1cc2cccc(Cl)c2c(=O)n1-c1ccccc1 [Duvelisib]

Result block:
1: 1.05; 2: 1.05

From: the supplement of paper PMC10883282
